Task for the reader: assign each of the following molecules its reported MIC.
System: Staphylococcus aureus
test-summary: Antibacterial activity against methicillin resistant Staphylococcus aureus M23 incubated for 16 to 18 hrs by broth dilution method
Assay type: functional
study-conditions: time 16-18 hrs
Answers are plain numbers, in µg/mL.

Recorded MIC, per entry:
[
  {
    "test-smiles": "C=CCc1cc(-c2ccc(OCCC[N+](C)(C)CC(=O)NCCCC)c(CC=C)c2)c2oc(-c3ccc(F)c(F)c3)nc2c1.[Br-]",
    "target-system": "Staphylococcus aureus",
    "MIC (µg/mL)": 4
  },
  {
    "test-smiles": "C=CCc1cc(-c2ccc(OCCC[N+](C)(C)CC(=O)NCCCC)c(CC=C)c2)c2oc(-c3ccccc3Br)nc2c1.[Br-]",
    "target-system": "Staphylococcus aureus",
    "MIC (µg/mL)": 4
  },
  {
    "test-smiles": "C=CCc1cc(-c2ccc(OCCC[N+](C)(C)CC(=O)NCCCC)c(CC=C)c2)c2oc(-c3cc(Br)cc(Br)c3)nc2c1.[Br-]",
    "target-system": "Staphylococcus aureus",
    "MIC (µg/mL)": 128
  }
]

Attention now shifts to the item below.
GET /value?item= C=CCc1cc(-c2ccc(OCCC[N+](C)(C)CC(=O)NCCCC)c(CC=C)c2)c2oc(-c3ccc(Cl)cc3F)nc2c1.[Br-] &field=MIC returns 128

----------
Hi there, I'd appreciate the recorded MIC for every entry that follows.
System: Staphylococcus aureus
test-summary: Antibacterial activity against methicillin resistant Staphylococcus aureus M23 incubated for 16 to 18 hrs by broth dilution method
Assay type: functional
study-conditions: time 16-18 hrs
Please give the number followed by its unit.

[
  {
    "test-smiles": "C=CCc1cc(-c2ccc(OCCC[N+](C)(C)CC(=O)NCCCC)c(CC=C)c2)c2oc(-c3ccc(C(F)(F)F)cc3)nc2c1.[Br-]",
    "target-system": "Staphylococcus aureus",
    "metric": "MIC",
    "observed-measurement": "8 µg/mL"
  },
  {
    "test-smiles": "C=CCc1cc(-c2ccc(OCCC[N+](C)(C)CC(=O)NCCCC)c(CC=C)c2)c2oc(-c3ccc(Cl)c(Br)c3)nc2c1.[Br-]",
    "target-system": "Staphylococcus aureus",
    "metric": "MIC",
    "observed-measurement": "128 µg/mL"
  },
  {
    "test-smiles": "C=CCc1cc(-c2ccc(OCCC[N+](C)(C)CC(=O)NCCCC)c(CC=C)c2)c2oc(-c3ccc(Cl)c(Cl)c3)nc2c1.[Br-]",
    "target-system": "Staphylococcus aureus",
    "metric": "MIC",
    "observed-measurement": "64 µg/mL"
  }
]

The reported value for C=CCc1ccc(O)c(-c2ccc(O)c(CC=C)c2)c1 in terms of MIC is 16 µg/mL

----------
test-summary: Cytotoxicity against human L02 cells assessed as survival rate at 16 ug/ml incubated for 24 hrs by CCK8 assay
Format: toxicity, cell-based
study-conditions: at 16 µg/mL, read-out: Survival
metric: viability at 24 h, 16 ug/ml (%)
Numbers only, in %.

The reported viability at 24 h, 16 ug/ml of the compound C=CCc1cc(-c2ccc(OCCC[N+](C)(C)CC(=O)NCCCC)c(CC=C)c2)c2oc(-c3c(Cl)cccc3Cl)nc2c1.[Br-] was 75

----------
Can you tell me HC50 at 1 h for the items I'm about to list?
test-summary: Hemolytic activity in sheep RBC incubated for 1 hr
Type: toxicity, cell-based, Ovis aries, Erythrocyte
study-conditions: sheep red blood cells (erythrocytes)
Answers are plain numbers, in µg/mL.

As a guide, the following entries are already answered.
[
  {
    "test-smiles": "C=CCc1cc(-c2ccc(OCCC[N+](C)(C)CC(=O)NCCCC)c(CC=C)c2)c2oc(-c3ccc(F)c(F)c3)nc2c1.[Br-]",
    "metric": "HC50 at 1 h",
    "unit-name": "µg/mL",
    "observed-measurement": 222
  },
  {
    "test-smiles": "C=CCc1cc(-c2ccc(OCCC[N+](C)(C)CC(=O)NCCCC)c(CC=C)c2)c2oc(-c3ccc(Cl)c(F)c3)nc2c1.[Br-]",
    "metric": "HC50 at 1 h",
    "unit-name": "µg/mL",
    "observed-measurement": 81
  }
]

What the record says about C=CCc1cc(-c2ccc(OCCC[N+](C)(C)CC(=O)NCCCC)c(CC=C)c2)c2oc(-c3ccc(Cl)c(Cl)c3)nc2c1.[Br-] : HC50 at 1 h is 87.6

----------
test-summary: Hemolytic activity in sheep RBC incubated for 1 hr
Type: toxicity, cell-based, Ovis aries, Erythrocyte
study-conditions: sheep red blood cells (erythrocytes)
Task for the reader: assign each of the following compounds its reported HC50 at 1 h.
Numbers only, in µg/mL.

For orientation, consider the following solved cases.
[
  {
    "test-smiles": "C=CCc1cc(-c2ccc(OCCC[N+](C)(C)CC(=O)NCCCC)c(CC=C)c2)c2oc(-c3cc(Cl)cc(Cl)c3)nc2c1.[Br-]",
    "unit-name": "µg/mL",
    "observed-measurement": 81.3
  },
  {
    "test-smiles": "C=CCc1cc(-c2ccc(OCCC[N+](C)(C)CC(=O)NCCCC)c(CC=C)c2)c2oc(-c3cccc(OC)c3)nc2c1.[Br-]",
    "unit-name": "µg/mL",
    "observed-measurement": 307
  },
  {
    "test-smiles": "C=CCc1cc(-c2ccc(OCCC[N+](C)(C)CC(=O)NCCCC)c(CC=C)c2)c2oc(-c3ccccc3F)nc2c1.[Br-]",
    "unit-name": "µg/mL",
    "observed-measurement": 110
  },
  {
    "test-smiles": "C=CCc1cc(-c2ccc(OCCC[N+](C)(C)CC(=O)NCCCC)c(CC=C)c2)c2oc(-c3ccc(F)c(Br)c3)nc2c1.[Br-]",
    "unit-name": "µg/mL",
    "observed-measurement": 48.5
  },
  {
    "test-smiles": "C=CCc1cc(-c2ccc(OCCC[N+](C)(C)CC(=O)NCCCC)c(CC=C)c2)c2oc(-c3ccc(Br)cc3Br)nc2c1.[Br-]",
    "unit-name": "µg/mL",
    "observed-measurement": 170
  }
]

Moving on to another compound below.
C=CCc1cc(-c2ccc(OCCC[N+](C)(C)CC(=O)NCCCC)c(CC=C)c2)c2oc(-c3ccc(OC)cc3)nc2c1.[Br-] has a reported HC50 at 1 h of 320

----------
For each of the compounds below, state its MIC.
Tested on: Staphylococcus aureus
test-summary: Antibacterial activity against methicillin resistant Staphylococcus aureus M23 incubated for 16 to 18 hrs by broth dilution method
Type: functional
study-conditions: time 16-18 hrs

[
  {
    "test-smiles": "C=CCc1cc(-c2ccc(OCCC[N+](C)(C)CC(=O)NCCCC)c(CC=C)c2)c2oc(-c3cccc(Cl)c3Cl)nc2c1.[Br-]",
    "metric": "MIC",
    "observed-measurement": "8 µg/mL"
  },
  {
    "test-smiles": "C=CCc1cc(-c2ccc(OCCC[N+](C)(C)CC(=O)NCCCC)c(CC=C)c2)c2oc(-c3ccccc3Cl)nc2c1.[Br-]",
    "metric": "MIC",
    "observed-measurement": "32 µg/mL"
  }
]

compound C=CCc1cc(-c2ccc(OCCC[N+](C)(C)CC(=O)NCCCC)c(CC=C)c2)c2oc(-c3cc(Cl)cc(Cl)c3)nc2c1.[Br-] , MIC observed: 128 µg/mL

----------
Please provide measured selectivity ratio for the entries that follow.
test-summary: Selectivity index, ratio of HC50 for sheep RBC to MIC for Staphylococcus aureus ATCC 29213
Type: toxicity
study-conditions: sheep red blood cells, read-out: Selectivity Index
Answers are plain numbers.

[
  {
    "test-smiles": "C=CCc1cc(-c2ccc(OCCC[N+](C)(C)CC(=O)NCCCC)c(CC=C)c2)c2oc(-c3ccc(Cl)c(Cl)c3)nc2c1.[Br-]",
    "selectivity ratio": 0.7
  },
  {
    "test-smiles": "C=CCc1cc(-c2ccc(OCCC[N+](C)(C)CC(=O)NCCCC)c(CC=C)c2)c2oc(-c3ccccc3F)nc2c1.[Br-]",
    "selectivity ratio": 27.4
  },
  {
    "test-smiles": "C=CCc1cc(-c2ccc(OCCC[N+](C)(C)CC(=O)NCCCC)c(CC=C)c2)c2oc(-c3ccc(Cl)c(F)c3)nc2c1.[Br-]",
    "selectivity ratio": 1.3
  },
  {
    "test-smiles": "C=CCc1cc(-c2ccc(OCCC[N+](C)(C)CC(=O)NCCCC)c(CC=C)c2)c2oc(-c3cccc(Cl)c3Cl)nc2c1.[Br-]",
    "selectivity ratio": 1.2
  },
  {
    "test-smiles": "C=CCc1cc(-c2ccc(OCCC[N+](C)(C)CC(=O)NCCCC)c(CC=C)c2)c2oc(-c3ccc(C(F)(F)F)cc3)nc2c1.[Br-]",
    "selectivity ratio": 0.5
  },
  {
    "test-smiles": "C=CCc1cc(-c2ccc(OCCC[N+](C)(C)CC(=O)NCCCC)c(CC=C)c2)c2oc(-c3cc(Br)cc(Br)c3)nc2c1.[Br-]",
    "selectivity ratio": 1.6
  },
  {
    "test-smiles": "C=CCc1cc(-c2ccc(OCCC[N+](C)(C)CC(=O)NCCCC)c(CC=C)c2)c2oc(-c3ccc(F)c(F)c3)nc2c1.[Br-]",
    "selectivity ratio": 27.7
  },
  {
    "test-smiles": "C=CCc1cc(-c2ccc(OCCC[N+](C)(C)CC(=O)NCCCC)c(CC=C)c2)c2oc(-c3ccc(Br)cc3Br)nc2c1.[Br-]",
    "selectivity ratio": 1.3
  },
  {
    "test-smiles": "C=CCc1cc(-c2ccc(OCCC[N+](C)(C)CC(=O)NCCCC)c(CC=C)c2)c2oc(-c3ccc(F)c(Br)c3)nc2c1.[Br-]",
    "selectivity ratio": 0.4
  },
  {
    "test-smiles": "C=CCc1cc(-c2ccc(OCCC[N+](C)(C)CC(=O)NCCCC)c(CC=C)c2)c2oc(-c3ccc(F)cc3Cl)nc2c1.[Br-]",
    "selectivity ratio": 27.3
  }
]

// input: 2 compounds below; output: selectivity ratio for each
1. C=CCc1cc(-c2ccc(OCCC[N+](C)(C)CC(=O)NCCCC)c(CC=C)c2)c2oc(-c3c(Cl)cccc3Cl)nc2c1.[Br-]
2. C=CCc1cc(-c2ccc(OCCC[N+](C)(C)CC(=O)NCCCC)c(CC=C)c2)c2oc(-c3cccc(OC)c3)nc2c1.[Br-]

54.5
9.6
